system: HEK-293T; test: Incucyte cell viability with HEK293T; format: toxicity, cell-based; details: human, 18 h, 10 µM, compound concentration 10 uM, replicate number 2; further: unitless GR value; below 1 slowed growth and below 0 cell loss
Exercise: for every item that follows, state its recorded Growth Rate.

Below, each entry is followed by its recorded Growth Rate result.
* C[C@@H]1CC(=O)N(C2CC2)N=C1c1ccc(NC(=O)N2Cc3ccncc3C2)cc1 | 0.53
* CCN1CCN(Cc2ccc(C(=O)Nc3ccc(C)c(Oc4ccc5c(c4)CC(=O)N5)c3)cc2C(F)(F)F)CC1.Cl.Cl | 0.15

// for each compound below, give its Growth Rate
1. CNc1nc(-c2ccc3c(N)n[nH]c3c2)cc(N2C[C@@H](C(=O)NC3CCCCC3)CC[C@H]2C)n1
2. O=C(Nc1ccc(-n2nc(C(F)(F)F)cc2C(F)(F)F)cc1)c1ccncc1F
3. Cc1ccc(C)c(OCCCC(C)(C)C(=O)O[C@@H]2O[C@H](C(=O)O)[C@@H](O)[C@H](O)[C@H]2O)c1

A)
[0.55, 0.42, 0.87]

Required: Growth Rate, one value per compound below.
1. CC(C)c1ccc(/C=N/NC(=O)c2ccc(O)cc2)cc1
2. COC[C@@H](CC(C)C)NC1=N/C(=C\c2ccc3ncsc3c2)C(=O)N1C
3. COc1ccc(-c2cc3c(C)nc(N)nc3n([C@H]3CC[C@H](OCCO)CC3)c2=O)cn1
4. CCOC(=O)N1CCC(CN(Cc2ccc(Cl)cc2)Cc2ccc([N+](=O)[O-])s2)C1 (centres undefined)

A)
0.58
0.69
-0.38
0.28
